SYSTEM_TESTED: T1, Human EphA2 (ephrin receptor A2) (human, UniProt P29317 24-976)
T1 construct: Endogenous protein in frozen human tumor tissue and tumor adjacent tissue, not a recombinant construct
TEST: IHC/IF score on frozen human tumor tissue, Her2+ BRC
Below, each entry is listed with its recorded IHC score.
The answer should be written as a number, with no unit following it.

Which IHC score value belongs to AB-009813 (antibody, mouse IgG2a, V domains shown) VH: QVQLQQWGAGLLKPSETLSLTCAVYGGSFSDYYWSWIRQPPGKGLEWIGEVNHAGSINYNNYNPSLKSRVTISVDPSKNQFSLKLTSVTAADTAVYYCAKPLRPHCTNGVCYSGDAFDIWGQGTMVTVAS VL: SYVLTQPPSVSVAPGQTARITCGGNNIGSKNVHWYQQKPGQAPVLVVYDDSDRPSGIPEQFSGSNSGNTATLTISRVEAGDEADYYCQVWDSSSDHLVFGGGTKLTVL ?
1

Which IHC score value belongs to AB-009812 (antibody, mouse IgG2a, V domains shown) VH: QVQLQQWGAGLLKPSETLSLTCAVYGGSFSDYYWSWIRQPPGKGLEWIGEVNHSGSINYNNYNPSLKSRVTISVDPSKNQFSLKLTSVTAADTAVYYCAKPLRPHCTNGVCYSGDAFDIWGQGTMVTVAS VL: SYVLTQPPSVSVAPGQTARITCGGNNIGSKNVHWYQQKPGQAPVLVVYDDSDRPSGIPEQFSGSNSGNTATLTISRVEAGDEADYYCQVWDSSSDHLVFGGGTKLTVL ?
2

Which IHC score value belongs to AB-009816 (antibody, mouse IgG2a, V domains shown) VH: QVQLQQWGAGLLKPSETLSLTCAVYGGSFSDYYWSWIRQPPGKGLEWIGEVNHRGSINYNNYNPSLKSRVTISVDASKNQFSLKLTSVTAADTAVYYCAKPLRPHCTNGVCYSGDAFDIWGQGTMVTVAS VL: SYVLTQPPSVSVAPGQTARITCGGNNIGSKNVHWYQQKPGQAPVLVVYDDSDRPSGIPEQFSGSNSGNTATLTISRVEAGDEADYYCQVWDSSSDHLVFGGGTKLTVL ?
2

Which IHC score value belongs to AB-009815 (antibody, mouse IgG2a, V domains shown) VH: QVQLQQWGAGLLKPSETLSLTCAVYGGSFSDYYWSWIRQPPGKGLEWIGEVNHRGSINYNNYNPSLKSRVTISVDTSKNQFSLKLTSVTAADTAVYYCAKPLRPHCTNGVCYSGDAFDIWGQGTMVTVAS VL: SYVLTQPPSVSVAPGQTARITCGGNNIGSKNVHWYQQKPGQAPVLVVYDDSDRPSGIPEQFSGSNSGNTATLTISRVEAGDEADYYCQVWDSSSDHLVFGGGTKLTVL ?
2

Source of measurements: patent US20250051464A1
